Origin of measurements: patent US20210395344A1

target_of_assay: T1, SARS-CoV-2 Spike Glycoprotein S1 (subunit 1) (SARS-CoV-2, UniProt P0DTC2 16-685)
T1 construct: also called S1 Monomer; SARS-CoV-2 S1
assay_details: column DC/S1 (format not explained)
assay_readout: pKd
Note on units: pKd is unitless, being -log10 of a concentration expressed in mol/L.

[Q] What pKd value was documented for this binder, 1-33 (antibody, V domains shown) VH: EVQLLESGGGLVQPGGSLRLSCAASGFTFSSYAMIWVRQAPGKGLEWVSAISGSGGSTFYADSVKGRFTISRDNSKNTLYLQMNSLRAEDTAVYYCTRPPYGDYGDYWGQGTLVTVSS VL: QSALTQPASVSGSPGQSITISCTGTSSDVGSYNLLSWYQQHPGKAPKLMIYEASKRPSGVSNRFSGSKSGNTASLTISGLQAEDEADYYCCSYAGSRTPVVFGGGTKLTVL ?
[A] 8.09
